The reported numbers originate from paper PMC3950713.

Target: T1, HpDprA(5-217)Y108E (Helicobacter pylori 26695, UniProt O25100 5-217, Y108E)
T1 sequence: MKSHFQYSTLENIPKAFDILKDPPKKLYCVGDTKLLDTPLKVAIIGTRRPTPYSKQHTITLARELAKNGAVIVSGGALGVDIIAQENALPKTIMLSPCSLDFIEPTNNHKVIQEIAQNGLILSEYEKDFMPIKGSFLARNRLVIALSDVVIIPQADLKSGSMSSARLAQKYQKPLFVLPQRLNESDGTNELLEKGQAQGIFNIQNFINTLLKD
Assay: MST
measured attribute: pKd
// pKd is dimensionless: -log10 of concentration (M)

Enquiry: Reported pKd, binder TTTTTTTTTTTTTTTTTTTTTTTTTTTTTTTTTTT (ssDNA) [dT35] : ____
Return: 6.45
